Tested on: UO-31 renal
Experiment: NCI-60 one-dose screen, 48 h (100 = growth as untreated, 0 = no growth, -100 = all killed)
Details: 10 µM unless noted
The panel holds about 83,000 compounds, 20% with a hit somewhere; the sample as a whole holds those more often.

molecule	unit_of_measurement	growth
O=C1/C(=C/c2ccccc2F)CNC/C1=C\c1ccccc1F	%	-89.6
CCCCC1COc2cccc3c(SCC(=O)N(C)c4cccc5ccccc45)cc[n+]1c23 (stereo unspecified)	%	94.1
COc1nc2c(cc1S(=O)(=O)c1ccccc1)CCc1c-2cnn1-c1cccc(Cl)c1	%	-15.6
COc1cccc(C2CC(=O)Nc3cc4c(cc32)CCC4)c1OC (stereo unspecified)	%	59.7
CC1=CN2C(=NC3=C(CCCC/C3=C\c3ccccc3)C2c2ccccc2)S1 (stereo unspecified)	%	78.1
COCCOC1=C(Cl)C(=O)c2ccccc2C1=O	%	-20.2
